All values here come from ChEMBL document CHEMBL1146447.

Measured inhibition at 100 ppm by item
Test system: Drechslera
Assay: Antifungal activity against Drechslera oryzae at 100 ppm after 168 hrs at 24 hrs intervals
Type: functional
Just the number in %, nothing appended.

INSERT INTO results (compound, display_unit, data_value) VALUES
  ('COc1c(O)cc2oc3cc(O)c(CC=C(C)C)c(O)c3c(=O)c2c1CCC(C)(C)O [GARCINONE D]', '%', 43),
  ('CCOc1cc2oc3cc(OCC)c(OC)c(CC=C(C)C)c3c(=O)c2c(O)c1CC=C(C)C', '%', -31);

# query: inhibition at 100 ppm of entry O=c1c2ccccc2oc2ccccc12 [XANTHONE]
34

Please look up its inhibition at 100 ppm: `C=C(C)COc1cc2oc3cc(OCC(=C)C)c(OC)c(CC=C(C)C)c3c(=O)c2c(O)c1CC=C(C)C`
-1

Which value of inhibition at 100 ppm has been reported for COc1c(O)cc2oc3cc(O)c(CC=C(C)C)c(O)c3c(=O)c2c1CC=C(C)C [MANGOSTIN] in the records?
54

Dear colleague, I am looking for the recorded inhibition at 100 ppm of the following compound: CC1(C)CCc2c(cc3oc4cc(O)c5c(c4c(=O)c3c2O)CCC(C)(C)O5)O1 [BR-XANTHONE A]
31

Which inhibition at 100 ppm is listed for `C=CCOc1cc2oc3cc(OCC=C)c(OC)c(CC=C(C)C)c3c(=O)c2c(O)c1CC=C(C)C` ?
-4
